# tgt: GLP-1 receptor (GLP-1R) (human, UniProt P43220 24-463)
# assay_details: cell-based or functional assay
Starred links: 1 amine or outer side, 2 acyl side, 3 side chain; linkers in the order of their positions; H or OH if unused. Non-standard residues stand in square brackets, D forms with d. Groups on a side chain read outwards from the residue. Primed or numbered codes have the meaning given here. No end group written: not given here. *: point of attachment. γGlu = O=C(O)[C@H](CCC(=O)[*:2])N[*:1]; Stearoyl = CCCCCCCCCCCCCCCCCC(=O)*; Palmitoyl = CCCCCCCCCCCCCCCC(=O)*; αMeF = C[C@](N)(Cc1ccccc1)C(=O)O; αMeK = C[C@](N)(CCCCN)C(=O)O; αMeS = C[C@](N)(CO)C(=O)O; PEG2′ = not defined here; Aib = CC(C)(N)C(=O)O
observed_property: cAMP Primary assay EC50 GLP-1R n1 (nM)
Field format: number, assumed nM, no unit text.

// recorded cAMP Primary assay EC50 GLP-1R n1 for H[Aib]EGS[αMeF]TSDV[αMeS]S[αMeF]LEGEAAK([PEG2′-PEG2′-γGlu-Palmitoyl])E[αMeF]IA[αMeF]VV[αMeK]GG-NH2 [SEQ ID NO 109] : 0.034

For this binder ( H[Aib]EGS[αMeF]TSDV[αMeS]S[αMeF]LEGEK([PEG2′-PEG2′-γGlu-Stearoyl])A[αMeK]E[αMeF]IA[αMeF]VV[αMeK]GG-NH2 [SEQ ID NO 111] ), measured cAMP Primary assay EC50 GLP-1R n1 is 0.018

Looking up H[Aib]EGS[αMeF]TSDV[αMeS]S[αMeF]LEGEAA[αMeK]E[αMeF]IA[αMeF]VV[αMeK]K([PEG2′-PEG2′-γGlu-Stearoyl])G-NH2 [SEQ ID NO 100] , I see its cAMP Primary assay EC50 GLP-1R n1 listed as 0.016

Please fill in: cAMP Primary assay EC50 GLP-1R n1 reported for HK([PEG2′-PEG2′-γGlu-Stearoyl])EGS[αMeF]TSDV[αMeS]S[αMeF]LEGEAA[αMeK]E[αMeF]IA[αMeF]VV[αMeK]GG-NH2 [SEQ ID NO 127] = 25

For reference, reported cAMP Primary assay EC50 GLP-1R n1 for H[Aib]K([PEG2′-PEG2′-γGlu-Stearoyl])GS[αMeF]TSDV[αMeS]S[αMeF]LEGEAA[αMeK]E[αMeF]IA[αMeF]VV[αMeK]GG-NH2 [SEQ ID NO 126] stands at 25

Looking up H[Aib]EGS[αMeF]K([PEG2′-PEG2′-γGlu-Stearoyl])SDV[αMeS]S[αMeF]LEGEAA[αMeK]E[αMeF]IA[αMeF]VV[αMeK]GG-NH2 [SEQ ID NO 122] , I found its cAMP Primary assay EC50 GLP-1R n1 recorded as 25
